molecular target: human Gal-1 (hGal-1); assay: Competitive binding assay: binding of biotinylated hGal-1 to microplate-adsorbed asialofetuin (ASF); conditions: Activities on hGal-1; mean values of several measurements
Sequence (P09382 2-135 limits assumed): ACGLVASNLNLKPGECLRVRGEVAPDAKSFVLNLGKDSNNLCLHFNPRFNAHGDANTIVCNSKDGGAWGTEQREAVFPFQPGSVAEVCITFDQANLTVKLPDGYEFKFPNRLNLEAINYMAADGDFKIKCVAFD
assayMetric: IC50 (nM)

[[record]]
compound = "OC[C@H]1O[C@H](Cc2cc(C3CCC(O)CC3)on2)[C@H](O)[C@@H](n2cc(-c3cc(F)c(F)c(F)c3)nn2)[C@H]1O (some centres unmarked) [Example 2.14]"
quantitativereadout = 4580

[[record]]
compound = "CO[C@@H]1[C@@H](n2cc(-c3cc(F)c(F)c(F)c3)nn2)[C@@H](O)[C@@H](CO)O[C@@H]1CC1CN(C2CCN(S(=O)(=O)C(C)(C)C)CC2)C(=O)O1 (mixture of isomers) [Example 5.22]"
quantitativereadout = 760

[[record]]
compound = "CO[C@@H]1[C@@H](n2cc(-c3ccc(C)c(F)c3F)nn2)[C@@H](O)[C@@H](CO)O[C@@H]1Cc1cc(C2(CC#N)CC2)no1 [Ex 1.332]"
quantitativereadout = 980

[[record]]
compound = "CN=S(=O)(C(C)C)N1CCC(c2cc(C[C@H]3O[C@H](CO)[C@H](O)[C@H](n4cc(-c5cc(F)c(F)c(F)c5)nn4)[C@H]3OC)no2)CC1 (mixture of isomers) [Example 3.57]"
quantitativereadout = 1400

[[record]]
compound = "CO[C@@H]1[C@@H](n2cc(-c3cc(F)c(F)c(F)c3)nn2)[C@@H](O)[C@@H](CO)O[C@@H]1Cc1cc(C2CCN(S(=O)(=O)N3CCCCC3)CC2)on1 [Example 3.63]"
quantitativereadout = 560

[[record]]
compound = "CO[C@@H]1[C@@H](n2cc(-c3cc(F)c(F)c(F)c3)nn2)[C@@H](O)[C@@H](CO)O[C@@H]1Cc1cc(-c2ccn(C)c(=O)c2)on1 [Ex 1.119]"
quantitativereadout = 4170

[[record]]
compound = "CO[C@@H]1[C@@H](n2cc(-c3ccc(F)c(F)c3F)nn2)[C@@H](O)[C@@H](CO)O[C@@H]1Cc1cn(C(C)(C)C)nn1 [Example 4.46]"
quantitativereadout = 310

[[record]]
compound = "CO[C@@H]1[C@@H](n2cc(-c3cc(F)c(F)c(F)c3)nn2)[C@@H](O)[C@@H](CO)O[C@@H]1CC1=NOC(C(C)(C)C)C1 (some centres unmarked) [Ex 1.66]"
quantitativereadout = 3760

[[record]]
compound = "COC(=O)N1CCC(c2cc(C[C@H]3O[C@H](CO)[C@H](O)[C@H](n4cc(-c5cc(F)c(F)c(F)c5)nn4)[C@H]3OC)no2)CC1 [Example 3.32]"
quantitativereadout = 610

[[record]]
compound = "CO[C@@H]1[C@@H](n2cc(-c3ccc(F)c(F)c3F)nn2)[C@@H](O)[C@@H](CO)O[C@@H]1Cc1cc(C2CCCCC2)on1 [Ex 1.175]"
quantitativereadout = 4760

[[record]]
compound = "CC(=O)O[C@@H]1[C@@H](n2cc(-c3cc(F)c(F)c(F)c3)nn2)[C@@H](O)[C@@H](CO)O[C@@H]1CC1CC(C2CCN(C(=O)OC(C)(C)C)CC2)=NO1 (some centres unmarked) [Ex 1.44]"
quantitativereadout = 1710

